Some binders, each annotated with its measured IC50 (µM), Nt-acetylation inhibition.
TARGET SYSTEM: T1, NatA complex (Naa15-Naa10) (human, UniProt P41227 1-235; Q9BXJ9 1-866)
T1 sequence (looked up) 1: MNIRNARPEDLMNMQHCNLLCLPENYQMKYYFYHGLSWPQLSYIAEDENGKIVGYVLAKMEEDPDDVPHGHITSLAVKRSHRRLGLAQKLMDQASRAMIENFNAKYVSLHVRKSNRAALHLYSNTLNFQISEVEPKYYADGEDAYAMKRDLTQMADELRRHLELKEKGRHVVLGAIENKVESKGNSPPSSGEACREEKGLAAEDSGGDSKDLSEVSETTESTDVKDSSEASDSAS
T1 sequence (looked up) 2: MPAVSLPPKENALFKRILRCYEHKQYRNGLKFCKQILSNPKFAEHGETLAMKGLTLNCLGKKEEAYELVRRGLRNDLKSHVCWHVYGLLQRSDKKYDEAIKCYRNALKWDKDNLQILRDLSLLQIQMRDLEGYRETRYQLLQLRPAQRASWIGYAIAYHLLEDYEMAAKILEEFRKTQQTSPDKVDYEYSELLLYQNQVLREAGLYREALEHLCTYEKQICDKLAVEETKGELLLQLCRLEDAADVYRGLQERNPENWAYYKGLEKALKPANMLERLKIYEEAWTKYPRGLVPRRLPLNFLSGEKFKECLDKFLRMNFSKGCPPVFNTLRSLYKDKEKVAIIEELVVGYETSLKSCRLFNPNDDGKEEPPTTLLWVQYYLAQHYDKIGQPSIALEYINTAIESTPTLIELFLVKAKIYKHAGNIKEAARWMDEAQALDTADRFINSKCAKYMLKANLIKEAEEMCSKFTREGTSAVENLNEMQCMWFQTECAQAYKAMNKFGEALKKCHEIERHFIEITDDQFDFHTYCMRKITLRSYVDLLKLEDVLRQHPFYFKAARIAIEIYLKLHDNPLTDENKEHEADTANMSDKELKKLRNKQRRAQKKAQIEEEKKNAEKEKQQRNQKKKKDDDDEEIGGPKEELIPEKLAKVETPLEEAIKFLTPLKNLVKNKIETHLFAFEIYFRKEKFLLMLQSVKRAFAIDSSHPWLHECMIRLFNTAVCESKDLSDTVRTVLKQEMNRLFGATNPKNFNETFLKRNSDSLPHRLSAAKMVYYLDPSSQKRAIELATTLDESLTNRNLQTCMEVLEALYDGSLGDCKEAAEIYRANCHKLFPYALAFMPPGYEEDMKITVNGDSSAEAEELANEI
EXPERIMENT SUMMARY: cell-based or functional assay
CoA = coenzyme A
State the answer as a number, implicitly in µM.

Below: 4 binders and their reported IC50 (µM), Nt-acetylation inhibition.
Query: Return reported IC50 (µM), Nt-acetylation inhibition; argument: {CoA-Ac}-SSMPV-NH2 [CoA-Ac-SSMPV]
Reply: 2.1

Query: Return reported IC50 (µM), Nt-acetylation inhibition; argument: {CoA-Ac}-SYAE-NH2 [CoA-Ac-SYAE]
Reply: 36.2

Query: Return reported IC50 (µM), Nt-acetylation inhibition; argument: {CoA-Ac}-SSSE-NH2 [CoA-Ac-SSSE]
Reply: 9.47

Query: Return reported IC50 (µM), Nt-acetylation inhibition; argument: {CoA-Ac}-AASE-NH2 [CoA-Ac-AASE]
Reply: 247

Now examine the next entry.
Query: Return reported IC50 (µM), Nt-acetylation inhibition; argument: {CoA-Ac}-SSAA-NH2 [CoA-Ac-SSAA]
Reply: 5.3

The reported measurements were obtained from patent US20200323888A1.
